# targetUnderTest: TDP-43 (Homo sapiens, UniProt Q13148 1-414)
# Sequence (Q13148 whole entry): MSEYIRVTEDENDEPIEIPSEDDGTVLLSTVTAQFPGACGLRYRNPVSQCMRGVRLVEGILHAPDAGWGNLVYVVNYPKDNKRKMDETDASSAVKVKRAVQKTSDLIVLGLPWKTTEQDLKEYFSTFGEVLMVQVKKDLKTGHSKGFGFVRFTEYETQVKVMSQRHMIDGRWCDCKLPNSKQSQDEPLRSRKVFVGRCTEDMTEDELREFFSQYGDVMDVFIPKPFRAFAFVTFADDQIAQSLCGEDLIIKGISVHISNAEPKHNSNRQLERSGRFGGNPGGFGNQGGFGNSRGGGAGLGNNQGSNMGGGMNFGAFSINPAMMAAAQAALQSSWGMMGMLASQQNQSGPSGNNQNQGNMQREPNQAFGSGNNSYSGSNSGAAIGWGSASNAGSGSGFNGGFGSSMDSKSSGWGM
# assayOverview: RNA Bind-n-Seq with designed 260-mer pool; 25 mM Tris-HCl, 150 mM KCl, 3 mM MgCl2, BSA (printed 500 mg/mL), 20 units/mL SUPERase IN; pH not stated; 500 nM RNA pool, 1 h, 4 C; TDP-43 5, 50, 500 nM; high values mean tight binding
# conditionLabel: protein: recombinant; tags: SBP (GST cleaved off with PreScission; pGEX-GST-SBP)
Over roughly 9,900 sequences, “r (bound/input frequency ratio)” has its median near 0.7; the highest 2% begin near 6.5. This is one part of a sample in which the highest values are shown more often than they occur.

binder: ENSMUSG00000004113.289|Cacna1b (ssRNA) RNA: GGGAGUUCUACAGUCCGACGAUCGCUUCGAUAUCCGCAUGCUACAUGCUCAGGAAGGUGUUCAGUGUGCACAGAUAGCUGGGAGGCCACGAGAGAAAGGUUGCACACAGACAGGCAGGCACUCCUUGGUGUGGUCUCUCUGUUUUGAAACUUCUGAUGACUUCUUGGUGGCUUGUUGUCUUCUACCCCAUGUUUCUCACAGGAUCUGUGUGUGUGUGUGUGUGUGUGUGUGUGUGUGUGUGUGUGUGUGUUAGCAUGUGUGUAUUAGCGUGUGUGAGUGUGUGAGCAUGCACGAGUCAUAGGACUCUUGCGGUCGCACUAGUGUGGAAUUCUCGGGUGUCAAGG
binding signal: 5.06 R (bound/input frequency ratio)
